Data credit: patent US20210301005A1

target-system: T1, human TGFβ2, mature receptor-binding domain (human, UniProt P09858 303-414 (pig entry), The mature TGFβ2 is a disulfide-linked homodimer of this 112-residue chain. The 4A11 epitope spans both monomers (p-1207).)
T1 sequence: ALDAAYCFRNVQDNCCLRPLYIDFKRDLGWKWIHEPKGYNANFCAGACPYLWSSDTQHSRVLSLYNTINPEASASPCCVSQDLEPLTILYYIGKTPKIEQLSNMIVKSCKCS
experiment-summary: cell-based or functional assay
This listing pairs binders with measured HEKBlue TGFβ blocking IC50.
Report as a plain number; the unit nM is understood.

>>> test_result("h6F12.v1.7 (antibody, human IgG1, kappa, N297G, V domains shown) VH: EVTLKESGPVLVKPTETLTLTCTVSGFSLTTYNVHWVRQPPGKALEWLGLIWNTGGTRYNSALKSRLTISKDTSKSQVVLTMTNMDPVDTATYYCARDPVPNKWHFDFWGPGTLVTVSS VL: DIQMTQSPSTLSASVGDRVTITCLASEDIYSNLAWYQQKPGKSPKLLIYDARSLQDGVPSRFSGSESGPEYTLTISSLQPDDFATYFCQQHHAYPFTFGQGTKVEIKR")
0.03
>>> test_result("h6F12.v1.5 (antibody, human IgG1, kappa, N297G, V domains shown) VH: EVTLKESGPVLVKPTETLTLTCTVSGFSLTTYNVHWVRQPPGKALEWMGLIWNTGGTRYNSALKSRLTISKDTSKSQVVLTMTNMDPVDTATYYCARDPVPNKWHFDFWGPGTLVTVSS VL: DIQMTQSPSTLSASVGDRVTITCLASEDIYSNLAWYQQKPGKSPKLLIYDARSLQDGVPSRFSGSESGPEYTLTISSLQPDDFATYYCQQHHAYPFTFGQGTKVEIKR")
0.04

Please turn your attention to the following entry.
Task: Could you share which HEKBlue TGFβ blocking IC50 value was measured for h6F12.v1.1 (antibody, human IgG1, kappa, N297G, V domains shown) VH: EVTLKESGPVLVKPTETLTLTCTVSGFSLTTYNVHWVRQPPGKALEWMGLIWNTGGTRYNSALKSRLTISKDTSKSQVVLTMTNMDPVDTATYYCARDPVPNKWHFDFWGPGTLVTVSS VL: DIQMTQSPSTLSASVGDRVTITCLASEDIYSNLAWYQQKPGKAPKLLIYDARSLQDGVPSRFSGSESGPEYTLTISSLQPDDFATYFCQQHHAYPFTFGQGTKVEIKR ?
Result: 0.02
